From: paper PMC5242348

Experiment: XTT-based cytotoxicity assay
Conditions: human, HeLa cells
Assign CC50 at 3 days to each entry below.
Write the number in µM without appending the unit.

Which CC50 at 3 days reading was recorded for the molecule CC(C/C=C\C(C)(C)O)C1CC[C@@]2(C)C3CCC4C(C)(C)[C@@H](O)CC[C@@]45C[C@@]35CC[C@]12C (stereo partly drawn) [Compound 2, Cycloart-23-ene-3β,25-diol] ?
0.022

Which CC50 at 3 days reading was recorded for the molecule C=C(C)C(O)CCC(C)C1CC[C@@]2(C)C3CCC4C(C)(C)[C@@H](O)CC[C@@]45C[C@@]35CC[C@]12C (some centres unmarked) [1a & 1b] ?
0.014
